Assay: Selectivity index, ratio of IC50 for cytotoxicity against human MCF-10A cells to IC50 for antiproliferative activity against human MCF7 cells
Assay type: toxicity, cell-based
Details: MCF-10A cells and MCF7 cells, read-out: Ratio IC50
test.readout: selectivity ratio
Lab note: write the figure by itself, no unit.

molecule="CCN(c1cccc(OC)c1)S(=O)(=O)C1CC2OC1C(c1ccc(NC(=O)CCCCC[Se]C#N)cc1)=C2c1ccc(O)cc1 (centres undefined)" reported_value=32.5

Problem: What value of selectivity ratio has been recorded for this entry: N#C[Se]CCCCCC(=O)Nc1ccc(C2=C(c3ccc(O)cc3)C3CC(S(=O)(=O)Oc4ccc(F)cc4)C2O3)cc1 (centres undefined)
Solution: 9.75

Problem: What about Cc1ccccc1OS(=O)(=O)C1CC2OC1C(c1ccc(NC(=O)CCCCC[Se]C#N)cc1)=C2c1ccc(O)cc1 (centres undefined) ?
Solution: 16.5
